Molecular target: T1, rat APJ receptor (rat, UniProt Q9JHG3 1-377)
T1 sequence (looked up): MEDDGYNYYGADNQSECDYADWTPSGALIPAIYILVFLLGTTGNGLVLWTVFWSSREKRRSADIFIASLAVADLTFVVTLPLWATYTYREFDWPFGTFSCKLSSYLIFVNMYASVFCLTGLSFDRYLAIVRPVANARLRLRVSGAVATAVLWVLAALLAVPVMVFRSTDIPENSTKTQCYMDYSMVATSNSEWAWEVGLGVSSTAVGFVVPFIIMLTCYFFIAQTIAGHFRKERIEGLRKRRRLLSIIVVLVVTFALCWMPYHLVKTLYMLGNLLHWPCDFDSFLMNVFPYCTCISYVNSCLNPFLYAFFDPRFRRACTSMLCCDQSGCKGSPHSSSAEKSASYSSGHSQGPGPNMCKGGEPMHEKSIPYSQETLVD
Assay: cell-based or functional assay
Starred links: 1 amine or outer side, 2 acyl side, 3 side chain; linkers in the order of their positions; H or OH if unused. Non-standard residues stand in square brackets, D forms with d. *: point of attachment. AC4Abu = α-carboxy-4-aminobutyric acid, O=C(C(CCN[*:1])C(=O)[*:3])[*:2]; dBip = N[C@H](Cc1ccc(-c2ccccc2)cc1)C(=O)O; Oic = O=C(O)[C@@H]1C[C@@H]2CCCC[C@@H]2N1; Phe(4-Cl) = N[C@@H](Cc1ccc(Cl)cc1)C(=O)O; Phe(4-I) = N[C@@H](Cc1ccc(I)cc1)C(=O)O; NMeR = CN[C@@H](CCCNC(=N)N)C(=O)O; Palmitoyl = CCCCCCCCCCCCCCCC(=O)*; hArg = N=C(N)NCCCC[C@H](N)C(=O)O; dTic = O=C(O)[C@H]1Cc2ccccc2CN1; Cha = N[C@@H](CC1CCCCC1)C(=O)O; NMeL = CN[C@@H](CC(C)C)C(=O)O; Pip = O=C(O)[C@@H]1CCCCN1; Nle = CCCC[C@H](N)C(=O)O; AEEA = NCCOCCOCC(=O)O
READOUT TYPE: EC50 Rat APJ Receptor (nM)
The reply should be a number in nM, with the unit left off.

// solved cases for EC50 Rat APJ Receptor follow
1) Palmitoyl-[AC4Abu][AEEA][AEEA][dQ]RP[NMeR][Cha]SHKG[Pip][Nle]P[dTic]-OH (SMILES CCCCCCCCCCCCCCCC(=O)NCCC(C(=O)O)C(=O)NCCOCCOCC(=O)NCCOCCOCC(=O)N[C@H](CCC(N)=O)C(=O)N[C@@H](CCCNC(=N)N)C(=O)N1CCC[C@H]1C(=O)N(C)[C@@H](CCCNC(=N)N)C(=O)N[C@@H](CC1CCCCC1)C(=O)N[C@@H](CO)C(=O)N[C@@H](Cc1c[nH]cn1)C(=O)N[C@@H](CCCCN)C(=O)NCC(=O)N1CCCC[C@H]1C(=O)N[C@@H](CCCC)C(=O)N1CCC[C@H]1C(=O)N1Cc2ccccc2C[C@@H]1C(=O)O) [SEQ ID NO: 599]
1.01
2) Ac-[hArg]Q[hArg]P[NMeR][Cha]SHKG[Oic][Nle]P[Phe(4-Cl)]-OH [SEQ ID NO: 60]
4.48
3) Ac-RQRPR[Cha]SHKGP[Nle]P[Phe(4-Cl)]-OH (SMILES CCCC[C@H](NC(=O)[C@@H]1CCCN1C(=O)CNC(=O)[C@H](CCCCN)NC(=O)[C@H](Cc1c[nH]cn1)NC(=O)[C@H](CO)NC(=O)[C@H](CC1CCCCC1)NC(=O)[C@H](CCCNC(=N)N)NC(=O)[C@@H]1CCCN1C(=O)[C@H](CCCNC(=N)N)NC(=O)[C@H](CCC(N)=O)NC(=O)[C@H](CCCNC(=N)N)NC(C)=O)C(=O)N1CCC[C@H]1C(=O)N[C@@H](Cc1ccc(Cl)cc1)C(=O)O) [SEQ ID NO: 63]
0.164

Shifting focus to the binder that follows.
Record summary for Ac-[hArg]EQ[hArg]P[dR][NMeL]SHKG[Oic][Phe(4-I)]P[dBip]-OH [SEQ ID NO: 76] : reported EC50 Rat APJ Receptor = 0.994
